Assay system: Grb2 SH2 (UniProt P62993)
Sequence (P62993 whole entry, looked up, the tested form may be a part): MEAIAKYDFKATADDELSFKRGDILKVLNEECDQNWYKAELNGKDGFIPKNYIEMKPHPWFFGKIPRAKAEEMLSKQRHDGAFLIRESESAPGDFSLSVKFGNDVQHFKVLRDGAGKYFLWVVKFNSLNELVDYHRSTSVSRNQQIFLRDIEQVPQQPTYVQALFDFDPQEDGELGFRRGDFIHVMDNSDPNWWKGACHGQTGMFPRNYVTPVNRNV
Experimental protocol: SH2 binding enrichment of the phosphorylated peptide, bacterial display (enrichment ratio); higher = better substrate or ligand; peptides without Tyr show the background;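 further: peptide library displayed on the E. coli surface as eCPX fusions, selected cells deep-sequenced, score is each peptide's frequency after selection divided by its frequency in the input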
Assignment: determine reported SH2 binding enrichment for the given sequences.

Item sequence | SH2 binding enrichment
VAHAVYQAVLS [SMG1_Y549] | 1.11

Below is a list of sequences. For each, state its recorded SH2 binding enrichment.
1. VEGIGYDFIPT [CBS_Y308]
2. MVTSGYKAKMI [EFR3A_Y447_T451M]
3. SSYSGYIMMPN [LEF1_Y114]
4. GHLFAYDWIRI [BEST1_Y227_S231R_YF]
5. TRSYDYTEGGD [FGF7_Y58_M59T]
6. RKLASYRSCLL [DHX37_Y1080]
7. VVLVSYVPFSQ [SH2B1_Y624_S627F]

Resp:
0.79
0.871
0.905
1.66
0.706
1.04
1.28

Please state, for each entry, its recorded SH2 binding enrichment.
1. GEDPIYVTLEG [RTKtide_2018]
2. ASNNPYFRDQA [RPGRIP1_Y846]
3. KLIMECLPFGS [JAK2_Y931_Y931C_YF]
4. QLQVFYATRDQ [MIPEP_Y579_L582R]
5. QNTGDDFDLFG [PTPN11_Y62_Y62D_YF]
6. VNKIFYPDFIV [LIG3_Y768_YF]

Resp:
[0.906, 0.89, 0.706, 0.904, 0.768, 1.14]

The reported measurements were obtained from the supplement of paper PMC10065799.
